Recorded values, source patent US20220324970A1.

molecular target: T1, human pIgR extracellular domain (ECD) (human, UniProt P01833 19-638); assay: BLI; summary table, repeats Table 1
T1 construct: also called hpIgR ECD
T1 sequence (P01833 other isoform, or with tags, fused parts or gaps): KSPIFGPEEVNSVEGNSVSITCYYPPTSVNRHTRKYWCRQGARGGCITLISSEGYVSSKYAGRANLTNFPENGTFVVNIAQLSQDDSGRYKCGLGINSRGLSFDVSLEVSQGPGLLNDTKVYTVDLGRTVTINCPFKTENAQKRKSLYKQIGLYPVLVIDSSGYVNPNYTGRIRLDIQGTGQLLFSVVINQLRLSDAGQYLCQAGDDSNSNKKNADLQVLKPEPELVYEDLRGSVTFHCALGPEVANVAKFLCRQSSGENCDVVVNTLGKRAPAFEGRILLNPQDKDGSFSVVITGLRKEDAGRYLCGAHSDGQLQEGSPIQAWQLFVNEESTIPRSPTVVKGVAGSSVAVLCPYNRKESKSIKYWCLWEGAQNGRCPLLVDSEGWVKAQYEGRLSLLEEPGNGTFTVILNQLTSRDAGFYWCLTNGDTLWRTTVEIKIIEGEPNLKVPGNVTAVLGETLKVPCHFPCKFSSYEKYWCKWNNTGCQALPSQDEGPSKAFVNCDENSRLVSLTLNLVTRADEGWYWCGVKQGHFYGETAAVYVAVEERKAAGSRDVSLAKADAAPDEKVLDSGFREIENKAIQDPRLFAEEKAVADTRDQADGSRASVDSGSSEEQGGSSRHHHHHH
# key: entry, value: Kd
Dear colleague, please send the value followed by its unit.

Binder | Measured Attribute | Measured
VHH11-linker-mono-Fc protein (Fc fusion, made in CHO cells; also called VHH11-mono-Fc; hpIgR_250) EVQVVESGGGLVQAGGSLRLSCAASGRTFTTYRMGWFRQAPGKEREFVAAIRWSGGRTLYADSVKGRFTISRDNAKNTAYLQMNNLRPEDTAVYYCAADLAEYSGTYSSPADSPAGYDYWGQGTQVTVSSEPKTPKPQPQPQLQPQPNPTTESKSPKSPAPELLGGPSVFLFPPKPKDTLMISRTPEVTCVVVDVSHEDPEVKFNWYVDGVEVHNAKTKPREEQYNSTYRVVSVLTVLHQDWLNGKEYKCKVSNKALPAPIEKTISKAKGQPREPQVYTKPPSREEMTKNQVSLSCLVKGFYPSDIAVEWESNGQPENNYKTTVPVLDSDGSFRLASYLTVDKSRWQQGNVFSCSVMHEALHNHYTQKSLSLSPGK | Kd | 19 nM

Query: Please indicate Kd recorded for VHH12-linker-mono-Fc protein (Fc fusion, made in CHO cells; also called VHH12-mono-Fc; hpIgR_266) QVQLVETGGGLVQAGDSLRLSCAASGRTLSFNTYAMGWFRQAPGKEREFVASITWNGGSTSYADSVKGRFTITRDNAKNTATLRMNSLQPDDTAVYYCAAARYYVSGTYFPANYWGQGTQVTVSSEPKTPKPQPQPQLQPQPNPTTESKSPKSPAPELLGGPSVFLFPPKPKDTLMISRTPEVTCVVVDVSHEDPEVKFNWYVDGVEVHNAKTKPREEQYNSTYRVVSVLTVLHQDWLNGKEYKCKVSNKALPAPIEKTISKAKGQPREPQVYTKPPSREEMTKNQVSLSCLVKGFYPSDIAVEWESNGQPENNYKTTVPVLDSDGSFRLASYLTVDKSRWQQGNVFSCSVMHEALHNHYTQKSLSLSPGK
Reply: 34 nM
